# assay.target: His6-AspH315–758 (human aspartate/asparagine-β-hydroxylase, AspH) (Homo sapiens)
# Construct: N-Terminally His6-tagged human AspH315–758 (His6-AspH315–758) was produced in E. coli BL21 (DE3) cells; made in house; host or cells: E. coli BL21 (DE3), pET-28a(+) vector
# Sequence (Q12797 315-758): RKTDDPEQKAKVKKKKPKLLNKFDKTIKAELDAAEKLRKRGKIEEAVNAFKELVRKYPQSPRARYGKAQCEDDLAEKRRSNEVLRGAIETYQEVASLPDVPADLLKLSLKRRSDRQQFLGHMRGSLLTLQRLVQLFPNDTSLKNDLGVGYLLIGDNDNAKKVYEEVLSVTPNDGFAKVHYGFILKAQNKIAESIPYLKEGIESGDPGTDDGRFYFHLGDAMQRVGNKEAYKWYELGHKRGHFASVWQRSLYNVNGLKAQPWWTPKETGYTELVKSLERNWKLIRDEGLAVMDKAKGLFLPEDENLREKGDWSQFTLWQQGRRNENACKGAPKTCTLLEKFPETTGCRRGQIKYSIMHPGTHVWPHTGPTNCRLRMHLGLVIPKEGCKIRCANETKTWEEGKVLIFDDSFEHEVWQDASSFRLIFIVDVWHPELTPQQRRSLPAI
# measurement.notes: SPE-MS AspH inhibition assay (LOPAC screen at fixed 20 μM and IC50 dose-response), hydroxylation of cyclic peptide hFX-CP101–119
# Format: biochemical
# experimental.conditions: 20 µM
measurement.type: Plate 2 (% inhibition) (%)
Report as a plain number; the unit % is understood.

Past entries and their recorded results:
| compound | Plate 2 (% inhibition) (%) |
| --- | --- |
| Br.NCc1cc(O)no1 [Muscimol hydrobromide] | -5.71 |
| C[N+](C)(C)CCCCCC[N+](C)(C)C.[Cl-].[Cl-] [Hexamethonium dichloride] | -4.72 |
| Cc1cccc(-c2[nH]ncc2-c2ccc3ncccc3n2)n1 | -13.51 |
| [Cl-].[Li+] [Lithium Chloride] | 1.04 |

Would you kindly look at the next entry?
In: Requested read-out: Plate 2 (% inhibition). Entry: CC(N)C(O)c1ccc(O)c(O)c1 (single isomer, unassigned; (-)) [(-)-alpha-Methylnorepinephrine]
Out: 85.40
